B1: library; numbered along this chain (parent)
chain: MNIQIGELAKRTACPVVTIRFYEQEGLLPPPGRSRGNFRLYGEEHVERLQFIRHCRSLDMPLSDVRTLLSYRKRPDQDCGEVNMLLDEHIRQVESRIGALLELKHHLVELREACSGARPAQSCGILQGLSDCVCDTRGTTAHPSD

Variants of: B1
run_description: sfGFP reporter fluorescence (15 h) (µM FITC); higher = higher leak
condition_summary: library round: Round 0; ligand: none
experimental_endpoint: sfGFP reporter fluorescence
Enter a number only.

Inquiry: // returns reported sfGFP reporter fluorescence for input MNIQIGELAKRTACPVVTIRFYEQEGLLPPPGRSRGNFRLYGEEHVERLQFIRHCRSLDNPLSDVRTLLSYRKRPDQDCGEVNMLLDEHIRQVESRIGALLELKHHLVELREACSGARPAQSCGILQGLSDCVCDTRGTTAHPSD [M60N]
Reply text: 0.0616

Inquiry: I'd like to know its sfGFP reporter fluorescence. The variant in question is MNIQIGELAKRTACPVVTIRFYEQEGLLPPPGRSRGNFFLYGEEHVERLQFIRHCRSLDMPLSDVRTLLSYRKRPDQDCGEVNMLLDEHIRQVESRIGALLELKHHLVELREACSGARPAQSCGILQGLSDCVCDTRGTTAHPSD [R39F]
Reply text: 0.0597

Inquiry: Using the record for MNIQIGELAKRTACPVVTIRFYEQEGLLPPPGRSRGNFRLYGEEHVERLQFIRHCRSLDMPLSDVRTLLSYRKRPDQDCGEVNMLLDEHIRQVESRIGALLELKHHLVELREACSGARPAQSCGWLQGLSDCVCDTRGTTAHPSD [I125W] , report its sfGFP reporter fluorescence.
Reply text: 0.0588

Inquiry: Please look up its sfGFP reporter fluorescence: MNIQIPELAKRTACPVVTIRFYEQEGLLPPPGRSRGNFRLYGEEHVERLQFIRHCRSLDMPLSDVRTLLSYRKRPDQDCGEVNMLLDEHIRQVESRIGALLELKHHLVELREACSGARPAQSCGILQGLSDCVCDTRGTTAHPSD [G6P]
Reply text: 0.061

Inquiry: GET /values?readout=sfGFP reporter fluorescence&item= MNIQIGELAKRTACPVVTIRFYEQEGLLPPPGRSRGNFRLYGEEHVERLQFIRHCRSLDMPLSDVRTLLSYRKRPDQDCGEKNMLLDEHIRQVESRIGALLELKHHLVELREACSGARPAQSCGILQGLSDCVCDTRGTTAHPSD [V82K]
Reply text: 0.0601

Inquiry: Which measured sfGFP reporter fluorescence value corresponds to MNIQIGELAKRTACPVVTIRDYEQEGLLPPPGRSRGNFRLYGEEHVERLQFIRHCRSLDMPLSDVRTLLSYRKRPDQDCGEVNMLLDEHIRQVESRIGALLELKHHLVELREACSGARPAQSCGILQGLSDCVCDTRGTTAHPSD [F21D] ?
Reply text: 0.0616

Inquiry: Which sfGFP reporter fluorescence value belongs to MNIQIGELAKRTACPVVTIRFYEQEGLLPPPGRSRGNFRLYGEEHVERLQFIRHCRSLDMPLSDVRTLLSYRKRPDQDCGEVNMLLDENIRQVESRIGALLELKHHLVELREACSGARPAQSCGILQGLSDCVCDTRGTTAHPSD [H89N] ?
Reply text: 0.0597

Inquiry: Entry MNIQIGELAKRTACPVVTIRFYEQEGLLPPPGRSRGNFRLYGEEHWERLQFIRHCRSLDMPLSDVRTLLSYRKRPDQDCGEVNMLLDEHIRQVESRIGALLELKHHLVELREACSGARPAQSCGILQGLSDCVCDTRGTTAHPSD [V46W] : reported sfGFP reporter fluorescence = ?
Reply text: 0.0583
